Entries and their MTT values follow.
# System: cellular dehydrogenase activity
# STUDY CONDITIONS: normalized composite Z-score vs mock-treated (DMSO) wells; Conc 20 μM
Please state the value as a number alone, without comment.

See these solved cases before continuing.
COMPOUND	EXPERIMENTAL SYSTEM	OUTCOME MEASURE	ENDPOINT VALUE
CC(=O)O[C@H]1C[C@@H](OC(C)=O)C(C)(C)C2CC(=O)[C@]3(C)C(CC[C@@]4(C)[C@H](C(=O)O)OC(=O)C5OC543)[C@]21C (stereo partly shown)	cellular dehydrogenase activity	MTT	−1.282
COc1ccc(-c2coc3c(OC)c(O)ccc3c2=O)cc1 [7-hydroxy-8,4′-dimethoxyisoflavone]	cellular dehydrogenase activity	MTT	−1.073
COC(=O)C[C@H]1C(C)(C)[C@@H](O)[C@@H]2CC3=C4CC(O)O[C@@H](c5ccoc5)[C@]4(C)CCC3[C@@]1(C)C2=O (stereo partly drawn) [3,16-dideoxymexicanolide-3beta-diol]	cellular dehydrogenase activity	MTT	−1.091
COc1ccc2c(c1)C1(C)CCC(=O)CC1CC2 (stereo not shown)	cellular dehydrogenase activity	MTT	−2.008
COc1ccc(-c2cc(=O)c3c(O)cc(O)c(-c4cc(-c5cc(=O)c6c(O)cc(O)cc6o5)ccc4OC)c3o2)cc1	cellular dehydrogenase activity	MTT	−1.024
CC(=O)OC1CCC2(C)C(CCC3C2CCC2(C)C3CC3OC4(CCC(C)CO4)C(C)C32)C1 (stereo not shown) [neotigogenin acetate]	cellular dehydrogenase activity	MTT	−1.611

# MTT of C=C1CC[C@@H]2[C@](C)(CO)[C@H](O)CC[C@@]2(C)[C@@H]1C/C=C1/C(=O)OC[C@H]1O [andrographolide] = −0.901

# MTT of CC(=O)O[C@@H]1CC2C(C)(C)C(=O)CC[C@]2(C)C2CC[C@]3(C)C(=CC(=O)O[C@H]3c3ccoc3)[C@@]21C (stereo partly shown) [dihydrodeoxygedunin] = −0.637

# MTT of CC1=C2C(O)C(=O)OC3CC4C(C)(C)C(=O)C=C[C@]4(C)C(CC1)[C@]23C (stereo partly shown) = −0.645

# MTT of C=C1CC[C@H]2O[C@]2(C)CC[C@@H]2[C@@H]1CC2(C)C [carylophyllene oxide] = −0.713

# MTT of COc1cc2c(cc1OC)C1(O)C(=O)c3ccc(O)c(C(=O)O)c3OC1CO2 (stereo not shown) = −0.976
